- targetDesc: GST-tagged ROR gamma ligand binding domain (LBD) (Homo sapiens)
- Construct: purchased Invitrogen
- method: TR-FRET assay for ROR gamma (LanthaScreen, Fluorescein-D22 co-activator peptide recruitment)
- Format: biochemical
- assaySetup: 1 μM compound; TR-FRET ratio 520/495
List of inhibition at 1 µM values.
recordedEndpoint: inhibition at 1 µM (%)

molecule="Cc1ccc(C2CC2)cc1N(C)C(=O)c1ccc(NC(=O)Cc2ccc(C(F)(F)C(C)O)cc2)cc1 (stereo not drawn)" unitabbrev=% datavalue=84.1
molecule=CCOC(=O)C(F)(F)c1ccc(CC(=O)Nc2ccc(C(=O)N(C)c3ccc(Cl)cc3)cc2)cc1 unitabbrev=% datavalue=27.6
molecule="CC(O)C(F)(F)c1ccc(CC(=O)Nc2ccc(C(=O)N(C)c3ccc(Cl)cc3Cl)cc2)cc1 (stereo not drawn)" unitabbrev=% datavalue=82
molecule="Cc1ccc(F)c(N(C)C(=O)c2ccc(NC(=O)Cc3ccc(C(F)(F)C(C)O)cc3)cc2)c1 (stereo not drawn)" unitabbrev=% datavalue=90.5
molecule=CN(C(=O)c1ccc(NC(=O)Cc2ccc(C(F)(F)C(N)=O)cc2)cc1)c1ccc(Cl)cc1 unitabbrev=% datavalue=20.7
molecule=COCC(F)(F)c1ccc(CC(=O)Nc2ccc(C(=O)N(C)[C@H](C)c3ccc(Cl)cc3)cc2)cc1 unitabbrev=% datavalue=84.5
molecule="CC(O)C(F)(F)c1ccc(CC(=O)Nc2ccc(C(=O)N(C)c3cc(C4CC4)ccc3Cl)cc2)cc1 (stereo not drawn)" unitabbrev=% datavalue=90.8
molecule=Cc1cc(C)cc(N(C)C(=O)c2ccc(NC(=O)Cc3ccc(C(F)(F)CO)cc3)cc2)c1 unitabbrev=% datavalue=87.5
molecule=CCC(F)(F)c1ccc(CC(=O)Nc2ccc(C(=O)N(C)c3cc(Cl)ccc3Cl)cc2)cc1 unitabbrev=% datavalue=88.5
molecule=CCC(F)(F)c1ccc(CC(=O)Nc2ccc(C(=O)N(CC(F)(F)F)c3cccc(Cl)c3)cc2)cc1 unitabbrev=% datavalue=84
molecule="CC(O)C(F)(F)c1ccc(CC(=O)Nc2ccc(C(=O)N(C)[C@@H](c3ccc(Cl)cc3)C3CC3)cc2)cc1 (stereo partly drawn)" unitabbrev=% datavalue=82.6
molecule="Cc1ccc(N(C)C(=O)c2ccc(NC(=O)Cc3ccc(C(F)(F)C(C)O)cc3)cc2)c(C2CC2)c1 (stereo not drawn)" unitabbrev=% datavalue=91.8
molecule="Cc1cc(Cl)ccc1N(C)C(=O)c1ccc(NC(=O)Cc2ccc(C(F)(F)C(C)O)cc2)cc1 (stereo not drawn)" unitabbrev=% datavalue=82.6
molecule="Cc1cc(C)c(N(C)C(=O)c2ccc(NC(=O)Cc3ccc(C(F)(F)C(C)O)cc3)cc2)c(Cl)c1 (stereo not drawn)" unitabbrev=% datavalue=86.8
molecule=Cc1ccc(N(C)C(=O)c2ccc(NC(=O)Cc3ccc(C(F)(F)[C@H](C)O)cc3)cc2)c(Cl)c1 unitabbrev=% datavalue=85.5
molecule="CC(O)C(F)(F)c1ccc(CC(=O)Nc2ccc(C(=O)N(C)c3cccc(Cl)c3F)cc2)cc1 (stereo not drawn)" unitabbrev=% datavalue=86.4
molecule="Cc1cc(-c2ccccc2F)cc(N(C)C(=O)c2ccc(NC(=O)Cc3ccc(C(F)(F)C(C)O)cc3)cc2)c1 (stereo not drawn)" unitabbrev=% datavalue=89.4
molecule=CCC(F)(F)c1ccc(CC(=O)Nc2ccc(C(=O)N(C)[C@H](C)c3ccc(Cl)cc3)cc2)cc1 unitabbrev=% datavalue=87.1
molecule="Cc1ccc(Cl)c(N(C)C(=O)c2ccc(NC(=O)Cc3ccc(C(F)(F)C(C)O)cc3)cc2)c1 (stereo not drawn)" unitabbrev=% datavalue=90.1
molecule=CCC(F)(F)c1ccc(CC(=O)Nc2ccc(C(=O)N(C)[C@@H](c3ccc(Cl)cc3)C3CC3)cc2)cc1 unitabbrev=% datavalue=87.4
molecule="Cc1cccc(Cl)c1N(C)C(=O)c1ccc(NC(=O)Cc2ccc(C(F)(F)C(C)O)cc2)cc1 (stereo not drawn)" unitabbrev=% datavalue=79.1
molecule=CCC(F)(F)c1ccc(CC(=O)Nc2ccc(C(=O)N(C)c3cc(C)cc(C)c3)cc2)cc1 unitabbrev=% datavalue=90.1
molecule=CCC(F)(F)c1ccc(CC(=O)Nc2ccc(C(=O)N(C)[C@@H](C)c3ccc(Cl)cc3)cc2)cc1 unitabbrev=% datavalue=61.5
molecule="CC(O)C(F)(F)c1ccc(CC(=O)Nc2ccc(C(=O)N(C)c3cc(Cl)cc(Cl)c3)cc2)cc1 (stereo not drawn)" unitabbrev=% datavalue=82.2
molecule=COCC(F)(F)c1ccc(CC(=O)Nc2ccc(C(=O)N(C)c3cc(C)cc(C)c3)cc2)cc1 unitabbrev=% datavalue=93.2
molecule="Cc1cc(C)cc(N(C)C(=O)c2ccc(NC(=O)Cc3ccc(C(F)(F)C(C)O)cc3)cc2)c1 (stereo not drawn)" unitabbrev=% datavalue=94.8
molecule=CCC(F)(F)c1ccc(CC(=O)Nc2ccc(C(=O)N(C)c3cc(C)cc(-c4ccccc4F)c3)cc2)cc1 unitabbrev=% datavalue=87.5
molecule=Cc1cc(C)cc(N(C)C(=O)c2ccc(NC(=O)Cc3ccc(C(F)(F)[C@@H](C)O)cc3)cc2)c1 unitabbrev=% datavalue=89.7
molecule=CCC(F)(F)c1ccc(CC(=O)Nc2ccc(C(=O)N(C)c3ccccc3Cl)cc2)cc1 unitabbrev=% datavalue=90.9
molecule="CC(O)C(F)(F)c1ccc(CC(=O)Nc2ccc(C(=O)N(C)c3ccccc3Cl)cc2)cc1 (stereo not drawn)" unitabbrev=% datavalue=85.5

----------
- targetDesc: GST-tagged ROR gamma ligand binding domain (LBD) (Homo sapiens, UniProt P51449)
- Construct: purchased Invitrogen
- method: TR-FRET assay for ROR gamma (LanthaScreen, Fluorescein-D22 co-activator peptide recruitment)
- Format: biochemical
- assaySetup: dose response curve, class symbols
List of IC50 values.
recordedEndpoint: IC50

compound="CC(O)C(F)(F)c1ccc(CC(=O)Nc2ccc(C(=O)N(C)c3ccc(Cl)cc3Cl)cc2)cc1 (stereo not shown) [Example 25]" datavalue="< 0.05 µM"
compound="Cc1cc(C)c(N(C)C(=O)c2ccc(NC(=O)Cc3ccc(C(F)(F)C(C)O)cc3)cc2)c(C)c1 (stereo not shown) [Example 32]" datavalue="0.05 to 0.1 µM"
compound="Cc1cc(N(C)C(=O)c2ccc(NC(=O)Cc3ccc(C(F)(F)C(C)O)cc3)cc2)c(F)cc1Cl (stereo not shown) [Example 37]" datavalue="< 0.05 µM"
compound="CC(O)C(F)(F)c1ccc(CC(=O)Nc2ccc(C(=O)N(C)c3cc(Cl)cc(Cl)c3)cc2)cc1 (stereo not shown) [Example 21]" datavalue="< 0.05 µM"

----------
- targetDesc: GST-tagged ROR gamma ligand binding domain (LBD) (Homo sapiens)
- Construct: purchased Invitrogen
- Sequence (P51449 269-508 limits assumed): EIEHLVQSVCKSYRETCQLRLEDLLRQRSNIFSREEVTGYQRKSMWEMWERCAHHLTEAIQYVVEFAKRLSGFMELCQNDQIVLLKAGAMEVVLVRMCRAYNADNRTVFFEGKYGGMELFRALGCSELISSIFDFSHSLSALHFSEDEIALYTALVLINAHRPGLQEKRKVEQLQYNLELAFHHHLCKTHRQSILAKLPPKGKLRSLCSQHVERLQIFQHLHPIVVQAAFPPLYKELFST
- method: TR-FRET assay for ROR gamma (LanthaScreen, Fluorescein-D22 co-activator peptide recruitment)
- Assay type: biochemical
- assaySetup: 10 μM compound; TR-FRET ratio 520/495
recordedEndpoint: inhibition at 10 µM (%)

compound="CCOC(=O)C(F)(F)c1ccc(CC(=O)Nc2ccc(C(=O)N(C)c3ccc(Cl)cc3)cc2)cc1 [Example 1]" datavalue=64.5
compound="CCC(F)(F)c1ccc(CC(=O)Nc2ccc(C(=O)N(CC(F)(F)F)c3cccc(Cl)c3)cc2)cc1 [Example 14]" datavalue=87.6
compound="Cc1cccc(Cl)c1N(C)C(=O)c1ccc(NC(=O)Cc2ccc(C(F)(F)C(C)O)cc2)cc1 (stereo not shown) [Example 31]" datavalue=86.6
compound="COCC(F)(F)c1ccc(CC(=O)Nc2ccc(C(=O)N(C)[C@H](C)c3ccc(Cl)cc3)cc2)cc1 [Example 16]" datavalue=93.7

----------
- targetDesc: GST-tagged ROR gamma ligand binding domain (LBD) (Homo sapiens, UniProt P51449)
- Construct: purchased Invitrogen
- method: TR-FRET assay for ROR gamma (LanthaScreen, Fluorescein-D22 co-activator peptide recruitment)
- Assay type: biochemical
- assaySetup: 1 μM compound; TR-FRET ratio 520/495
recordedEndpoint: inhibition at 1 µM (%)

compound="Cc1ccc(N(C)C(=O)c2ccc(NC(=O)Cc3ccc(C(F)(F)C(C)O)cc3)cc2)c(Cl)c1 (centres unmarked)" unitabbrev=% datavalue=88.8
compound="Cc1cc(N(C)C(=O)c2ccc(NC(=O)Cc3ccc(C(F)(F)C(C)O)cc3)cc2)c(F)cc1Cl (centres unmarked)" unitabbrev=% datavalue=93.9
compound="CC(O)C(F)(F)c1ccc(CC(=O)Nc2ccc(C(=O)N(C)c3ccc(C4CC4)cc3Cl)cc2)cc1 (centres unmarked)" unitabbrev=% datavalue=92.6
compound=Cc1cc(C)cc(N(C)C(=O)c2ccc(NC(=O)Cc3ccc(C(F)(F)C(C)(C)O)cc3)cc2)c1 unitabbrev=% datavalue=86.2
compound="CC(O)C(F)(F)c1ccc(CC(=O)Nc2ccc(C(=O)N(C)c3cc(Cl)ccc3Cl)cc2)cc1 (centres unmarked)" unitabbrev=% datavalue=87.6
compound=Cc1ccc(N(C)C(=O)c2ccc(NC(=O)Cc3ccc(C(F)(F)[C@@H](C)O)cc3)cc2)c(Cl)c1 unitabbrev=% datavalue=80.7
compound="Cc1cc(C)c(N(C)C(=O)c2ccc(NC(=O)Cc3ccc(C(F)(F)C(C)O)cc3)cc2)c(C)c1 (centres unmarked)" unitabbrev=% datavalue=84.9
compound=CN(C(=O)c1ccc(NC(=O)Cc2ccc(C(F)(F)CO)cc2)cc1)c1ccc(Cl)cc1 unitabbrev=% datavalue=75

Every entry's value here was drawn from patent US20190144375A1.
